TESTED_SYSTEM: human CD28 (human, UniProt P10747 19-220, On cells CD28 is a disulfide linked homodimer and a glycoprotein; one copy of the chain is given.)
Sequence (P10747 19-220 limits assumed): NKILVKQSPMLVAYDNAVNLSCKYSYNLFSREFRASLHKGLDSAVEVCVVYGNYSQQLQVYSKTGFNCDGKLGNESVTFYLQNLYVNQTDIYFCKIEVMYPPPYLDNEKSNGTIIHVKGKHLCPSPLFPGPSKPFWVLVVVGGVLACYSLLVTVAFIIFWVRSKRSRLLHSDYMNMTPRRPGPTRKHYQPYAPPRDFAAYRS
TEST_PROTOCOL: cell-based or functional assay
# if measured Percent Divided (CFSE T cell division, with plate-coated anti-CD3 UCHT1) < 60%: satisfied  # else: not satisfied

BINDER	DISCRETE_LABEL
exemplary anti-CD28 antibody AB6 (antibody, V domains shown, Mouse hybridoma monoclonal antibody; Conjugated to PE in the staining assays; also called antibody 6; clone 6) VH: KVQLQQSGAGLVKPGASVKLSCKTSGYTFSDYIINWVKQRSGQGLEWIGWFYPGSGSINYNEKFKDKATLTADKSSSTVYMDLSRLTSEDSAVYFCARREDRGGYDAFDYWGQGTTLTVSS VL: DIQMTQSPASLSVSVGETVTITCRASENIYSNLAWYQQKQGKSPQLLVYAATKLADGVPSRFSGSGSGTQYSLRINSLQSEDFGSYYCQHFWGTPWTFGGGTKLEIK	not satisfied
exemplary anti-CD28 antibody AB4 (antibody, V domains shown, Mouse hybridoma monoclonal antibody; Conjugated to PE in the staining assays; also called antibody 4; clone 4) VH: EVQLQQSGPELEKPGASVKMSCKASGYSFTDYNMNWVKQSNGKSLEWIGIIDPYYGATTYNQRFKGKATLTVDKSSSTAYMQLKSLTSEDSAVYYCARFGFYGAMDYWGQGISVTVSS VL: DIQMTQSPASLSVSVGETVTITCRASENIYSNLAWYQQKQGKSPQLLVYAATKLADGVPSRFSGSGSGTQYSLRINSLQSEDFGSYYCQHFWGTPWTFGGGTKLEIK	satisfied
exemplary anti-CD28 antibody AB1 (antibody, V domains shown, Mouse hybridoma monoclonal antibody; also called antibody 1; clone 1) VH: QVHLQQSATELARPGASVKMSCKASGYTFTSYTMHWVKQRPGQGLEWIGYIDPGSGYSEFNHKFKDKSTLTADKSSSTAYMQLISLTSEDSAVYYCARRQDNSGYDSFDYWGQGTTLTVSS VL: DIQMTQSPASLSVSVGETVTITCRTSENIYSNLAWYQQKQGKSPQLLVYAATNLADGVSSRFSGSGSGIQYSLKINSLQSEDFGSYYCQHFWGIPWTFGGGTKLEIK	satisfied
exemplary anti-CD28 antibody AB3 (antibody, V domains shown, Mouse hybridoma monoclonal antibody; Conjugated to PE in the staining assays; also called antibody 3; clone 3) VH: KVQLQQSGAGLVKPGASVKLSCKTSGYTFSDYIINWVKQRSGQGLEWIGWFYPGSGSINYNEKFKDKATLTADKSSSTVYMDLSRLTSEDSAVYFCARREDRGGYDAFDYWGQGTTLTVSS VL: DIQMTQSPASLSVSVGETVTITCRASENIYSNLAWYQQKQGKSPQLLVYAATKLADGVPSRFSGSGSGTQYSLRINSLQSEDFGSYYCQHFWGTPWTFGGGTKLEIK	satisfied
